PROCEDURE DETAILS: Cytotoxicity against BHK1 cells after 48 to 120 hrs by MTT method
Type: cell-based, Mesocricetus auratus
CONDITION NOTES: hamster
Answer each item with its documented CC50.
Answers are plain numbers, in µM.

CC(=O)Nc1ccnc2c(Cl)c(Cl)c3ncccc3c12 ... 18

Hi, could you look up CC50 for each item in my list?
1. CCOc1ccnc2ccc3ncccc3c12
2. CCOC(=O)c1c[nH]c2c(Cl)c(Cl)c3ncccc3c2c1=O

35
25

Hi, could you look up CC50 for each item in my list?
1. O=c1cc[nH]c2ccc3ncccc3c12
2. Nc1ccnc2c(Cl)c(Cl)c3ncccc3c12
3. O=C(O)c1c[nH]c2c(Cl)c(Cl)c3ncccc3c2c1=O
4. CCOc1ccnc2c(Cl)c(Cl)c3ncccc3c12

1: 66; 2: 11; 3: 23; 4: 25

====

System: Bovine viral diarrhea virus 1
PROCEDURE DETAILS: Antiviral activity against BVDV in MDBK cells assessed as inhibition of virus-induced cytopathogenicity after 2 to 3 days by MTT method
Assay type: functional, organism-based
CONDITION NOTES: Bovine viral diarrhea virus isolates and strains
Answer each item with its documented pEC50.
One number for each entry, as −log10 of the molar value.

O=c1cc[nH]c2ccc3ncccc3c12 ... 4.02
Nc1ccnc2ccc3ncccc3c12 ... 5.05
CCOc1ccnc2c(Cl)c(Cl)c3ncccc3c12 ... 4.60
O=c1cc[nH]c2c(Cl)c(Cl)c3ncccc3c12 ... 4.80
CCOc1ccnc2ccc3ncccc3c12 ... 5.22
CCOC(=O)c1c[nH]c2c(Cl)c(Cl)c3ncccc3c2c1=O ... 4.46

Continue with the next compound.
Annotate the compound Clc1c(Cl)c2ncccc2c2cccnc12 with its measured pEC50.
4.80

====

PROCEDURE DETAILS: Cytotoxicity against Vero 76 cells after 48 to 120 hrs by MTT method
Type: cell-based
CONDITION NOTES: chlorocebus sabaeus
PROPERTY MEASURED: CC50

Recorded results for 3 molecules are shown here.
CC(=O)Nc1ccnc2c(Cl)c(Cl)c3ncccc3c12 ... 50 µM
O=c1cc[nH]c2c(Cl)c(Cl)c3ncccc3c12 ... 80 µM
O=C(O)c1c[nH]c2c(Cl)c(Cl)c3ncccc3c2c1=O ... 100 µM

Hi, could you look up CC50 for each item in my list?
1. Clc1c(Cl)c2ncccc2c2cccnc12
2. CCOc1ccnc2c(Cl)c(Cl)c3ncccc3c12
3. O=c1cc[nH]c2ccc3ncccc3c12
4. c1cnc2ccc3ncccc3c2c1

["25 µM", "75 µM", "> 100 µM", "80 µM"]

====

System: Bovine viral diarrhea virus 1
PROCEDURE DETAILS: Antiviral activity against BVDV in MDBK cells assessed as inhibition of virus-induced cytopathogenicity after 2 to 3 days by MTT method
Type: functional, organism-based
CONDITION NOTES: Bovine viral diarrhea virus isolates and strains
pEC50: −log10 of the molar value.
PROPERTY MEASURED: pEC50

Recorded results for 2 compounds are shown here.
Clc1c(Cl)c2nccc(Cl)c2c2cccnc12 ... < 4.27
O=C(O)c1c[nH]c2c(Cl)c(Cl)c3ncccc3c2c1=O ... < 4.00

Annotate the compound Nc1ccnc2c(Cl)c(Cl)c3ncccc3c12 with its measured pEC50.
≤ 4.62

====

PROCEDURE DETAILS: Cytotoxicity against BHK1 cells after 48 to 120 hrs by MTT method
Format: cell-based, Mesocricetus auratus
CONDITION NOTES: hamster
Answer each item with its documented CC50.

O=c1cc[nH]c2c(Cl)c(Cl)c3ncccc3c12 ... > 100 µM

Hi, could you look up CC50 for each item in my list?
1. c1cnc2ccc3ncccc3c2c1
2. Clc1c(Cl)c2ncccc2c2cccnc12
3. Clc1c(Cl)c2nccc(Cl)c2c2cccnc12
4. Nc1ccnc2ccc3ncccc3c12

1. > 100 µM
2. > 100 µM
3. > 100 µM
4. > 100 µM

The reported measurements were obtained from ChEMBL document CHEMBL1146386.
